Target: T1, Mcl-1, Q07820
T1 chain: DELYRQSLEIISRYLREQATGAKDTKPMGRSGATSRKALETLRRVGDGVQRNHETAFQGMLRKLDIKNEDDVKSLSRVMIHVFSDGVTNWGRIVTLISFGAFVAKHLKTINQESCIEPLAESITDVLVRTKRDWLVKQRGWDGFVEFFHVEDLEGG
Assay: peptide SPOT array, c-Myc-tagged receptor at 1 uM or 100 nM, anti-c-Myc-Cy3
Listing of recorded SPOT signal as a fraction of Bim BH3's signal on the same receptor and array by entry.
Quantity: SPOT signal as a fraction of Bim BH3's signal on the same receptor and array

SSAPAAAAGLLREAGSGGRERADWRR [MAP3K1]; 0.07
AAVGNHVAKLLQSIGQAPESISEKEL [NAE1]; 0.02
ADAIRPRCVELRHLLDDFINGNKKKW [MCF2L2]; 0.26
IQQDLGCGASLGVISDNLLVTGGQGC [SCAP]; 0.01

Entry source: paper PMC4072508
